# System: c-Abl (mouse);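 note: 11-residue human phosphosite peptides and single-mutation variants displayed on the E. coli surface, counted by deep sequencing, each peptide's frequency after selection divided by its frequency in the unselected input library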;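 note: frequency after pTyr selection over input frequency; kinase dosed for 20-30% of maximal phosphorylation in three min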
# Assay text: phosphorylation enrichment, bacterial display (enrichment ratio); higher = better substrate or ligand; peptides without Tyr show the background
# thresholds on phosphorylation enrichment define classes: lower level = under 0.6, middle level = from 0.6 up to 0.9, upper level = 0.9 and over

Sequence entry	Assay target	Assigned label
FADIAYNYRDG [PAH_Y166_H170D]	c-Abl (mouse)	lower level
LGGAMYFLEAD [PKHD1_Y452_E457D_YF]	c-Abl (mouse)	middle level
GKPENYRRLDI [VHL_Y175_V170G]	c-Abl (mouse)	lower level
RRYVYYYSYLL [PTEN_Y177]	c-Abl (mouse)	upper level
MRNDLYQTPLH [NFKB1_Y582]	c-Abl (mouse)	upper level
NVQIVYKPVDL [MAPT_Y627_S622N]	c-Abl (mouse)	middle level
PFTRNYFVQAV [CYBA_Y87_R90Q_YF]	c-Abl (mouse)	middle level
HAVFVYDICHV [TWNK_Y508_YF]	c-Abl (mouse)	upper level

Problem: Kindly state the category for this sequence: HMEAVYIDIAD [PITPNA_Y140_V136M]
Solution: upper level

The values you see were collected from the supplement of paper PMC10065799.
